Biological target: human dopamine transporter (hDAT) (Homo sapiens)
Sequence (Q01959 whole entry): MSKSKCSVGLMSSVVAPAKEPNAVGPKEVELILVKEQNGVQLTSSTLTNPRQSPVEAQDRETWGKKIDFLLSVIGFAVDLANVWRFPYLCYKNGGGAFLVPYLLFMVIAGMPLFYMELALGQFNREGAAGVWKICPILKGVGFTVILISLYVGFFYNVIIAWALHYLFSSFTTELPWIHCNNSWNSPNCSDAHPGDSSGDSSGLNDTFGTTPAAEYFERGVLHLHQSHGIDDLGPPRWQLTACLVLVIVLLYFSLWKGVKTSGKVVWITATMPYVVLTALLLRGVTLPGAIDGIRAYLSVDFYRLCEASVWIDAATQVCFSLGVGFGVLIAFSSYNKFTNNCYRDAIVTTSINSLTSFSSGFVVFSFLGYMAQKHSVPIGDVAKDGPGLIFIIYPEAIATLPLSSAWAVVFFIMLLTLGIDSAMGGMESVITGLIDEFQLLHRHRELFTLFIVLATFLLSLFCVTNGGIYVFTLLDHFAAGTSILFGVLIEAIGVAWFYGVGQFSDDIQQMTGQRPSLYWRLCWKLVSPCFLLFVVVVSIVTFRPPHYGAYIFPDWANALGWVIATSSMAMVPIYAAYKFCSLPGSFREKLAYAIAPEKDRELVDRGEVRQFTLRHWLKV
Assay: cell-based
Conditions: Table 2; read-out: Reuptake [3H]DA (Ki ± SD)
Readout: pKi
Recall that pKi is obtained by taking minus log10 of the concentration measured in molar.

**Query** Answer with the recorded pKi for the molecule listed here: CC(=O)C1(c2ccccc2)CCN(CCCCOC(c2ccc(F)cc2)c2ccc(F)cc2)CC1 [Compound 31525]
**Result** 5.99

**Query** Identify measured pKi associated with OC1(c2ccc(Br)cc2)CCN(CCCCOC(c2ccc(F)cc2)c2ccc(F)cc2)CC1 [Compound 31530]
**Result** 6.37

====

Target: human norepinephrine transporter (hNET) (Homo sapiens)
Sequence (P23975 whole entry): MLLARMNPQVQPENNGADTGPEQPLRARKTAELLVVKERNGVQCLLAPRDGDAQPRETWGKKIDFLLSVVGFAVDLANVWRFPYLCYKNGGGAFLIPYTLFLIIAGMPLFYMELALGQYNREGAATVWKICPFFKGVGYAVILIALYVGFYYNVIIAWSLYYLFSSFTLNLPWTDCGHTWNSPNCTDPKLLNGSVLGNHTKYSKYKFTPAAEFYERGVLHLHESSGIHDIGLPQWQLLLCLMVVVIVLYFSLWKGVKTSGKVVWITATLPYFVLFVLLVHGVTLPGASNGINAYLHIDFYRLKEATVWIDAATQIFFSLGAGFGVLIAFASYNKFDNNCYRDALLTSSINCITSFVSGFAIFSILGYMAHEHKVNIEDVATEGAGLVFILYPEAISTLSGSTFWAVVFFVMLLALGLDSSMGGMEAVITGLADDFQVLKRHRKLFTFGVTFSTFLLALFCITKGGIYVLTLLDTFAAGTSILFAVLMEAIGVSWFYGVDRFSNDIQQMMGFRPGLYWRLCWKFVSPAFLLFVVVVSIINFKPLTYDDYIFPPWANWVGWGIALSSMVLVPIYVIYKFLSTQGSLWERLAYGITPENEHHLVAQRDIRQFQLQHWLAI
Assay: biochemical
Format: binding
Conditions: [125I]RTI-55 binding Ki, NET
Field: pKi. Provide a value for each of the molecules that follow.
# pKi: negative log10 of molar concentration; output just the value

**Query** Read off the recorded pKi for "Fc1ccc(C(OCCCCN2CCN(c3ccccc3F)CC2)c2ccc(F)cc2)cc1"
**Result** 6.38

**Query** Using the record for "Fc1ccc(C(OCCCCN2CCN(c3ccc(F)cc3)CC2)c2ccc(F)cc2)cc1" , state its measured pKi.
**Result** 6.68

**Query** Respond only with pKi recorded for "OC1(c2ccccc2)CCN(CCCCOC(c2ccc(F)cc2)c2ccc(F)cc2)CC1"
**Result** 7.27

**Query** Return reported pKi. Input molecule: "Fc1ccc(C(OCCCCN2CCN(c3ccccc3)CC2)c2ccc(F)cc2)cc1"
**Result** 6.69

**Query** Identify the reported pKi for the following entry. "Fc1ccc(C(OCCCCN2CCN(c3cccc(C(F)(F)F)c3)CC2)c2ccc(F)cc2)cc1"
**Result** 6.65

====

Target: UniProtKB P23975
Test: biochemical
Type: binding
Conditions: HEK-hNET cells; bound given in μM; read-out: [125I]RTI-55 binding Ki, NET
Readout: Ki

**Query** Report its Ki with UniProtKB P23975 as the test system: O=C1c2ccccc2C(=O)N1CCCCN1CCC(O)(c2ccc(Br)cc2)CC1 [Compound 31627]
**Result** > 10 µM

====

Target: human dopamine transporter (hDAT) (Homo sapiens)
Experiment: biochemical
Format: binding
Label Y when Binding discrimination ratio SERT/DAT < 3; otherwise N.

**Query** Does the reported Binding discrimination ratio SERT/DAT of "OC1(c2ccc(Cl)cc2)CCN(CCCCOC(c2ccc(F)cc2)c2ccc(F)cc2)CC1" stay below 3?
**Result** N

**Query** Consider the molecule "O=C1CN(CCCCOC(c2ccc(F)cc2)c2ccc(F)cc2)CCN1" . Is its Binding discrimination ratio SERT/DAT strictly less than 3?
**Result** Y

**Query** Given "OC1CCN(CCCCOC(c2ccc(F)cc2)c2ccc(F)cc2)CC1" , is recorded Binding discrimination ratio SERT/DAT strictly lower than 3?
**Result** N

**Query** Determine whether this molecule shows Binding discrimination ratio SERT/DAT lower than 3 (ties excluded): "Fc1ccc(C(OCCCCN2CCN(c3cccc(C(F)(F)F)c3)CC2)c2ccc(F)cc2)cc1"
**Result** N

**Query** # strict comparison: is reported Binding discrimination ratio SERT/DAT < 3? input = "COc1ccccc1N1CCN(CCCCOC(c2ccc(F)cc2)c2ccc(F)cc2)CC1"
**Result** N

**Query** Would you kindly verify if Binding discrimination ratio SERT/DAT of "Fc1ccc(C(OCCCCN2CCN(c3ccccc3)CC2)c2ccc(F)cc2)cc1" is strictly less than 3?
**Result** Y

**Query** Determine whether this molecule shows Binding discrimination ratio SERT/DAT lower than 3 (ties excluded): "Fc1ccc(C(OCCCCN2CCN(c3ccc(Cl)cc3)CC2)c2ccc(F)cc2)cc1"
**Result** Y

**Query** Please let me know if "OC1(c2ccccc2)CCN(CCCCOC(c2ccc(F)cc2)c2ccc(F)cc2)CC1" shows Binding discrimination ratio SERT/DAT below 3.
**Result** Y
